Molecular target: DNA repair protein RAD52 homolog (Homo sapiens, UniProt P43351)
Sequence (P43351 whole entry): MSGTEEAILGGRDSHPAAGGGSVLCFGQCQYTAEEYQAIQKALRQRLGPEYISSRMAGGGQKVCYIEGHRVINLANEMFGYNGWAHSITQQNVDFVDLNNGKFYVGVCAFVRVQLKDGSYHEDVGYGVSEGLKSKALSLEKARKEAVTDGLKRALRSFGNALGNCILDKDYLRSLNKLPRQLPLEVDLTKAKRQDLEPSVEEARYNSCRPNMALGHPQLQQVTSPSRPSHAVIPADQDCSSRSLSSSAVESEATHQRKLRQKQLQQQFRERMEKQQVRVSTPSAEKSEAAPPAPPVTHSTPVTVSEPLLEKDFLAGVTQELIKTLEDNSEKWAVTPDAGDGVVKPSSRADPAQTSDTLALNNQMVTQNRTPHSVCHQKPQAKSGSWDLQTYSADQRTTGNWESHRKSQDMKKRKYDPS
Format: functional, biochemical
Active and inactive are the calls of the source.
AC50 by entry:
Recorded Endpoint: AC50

structure_smiles=COc1cccc(-c2nc(N3CCN(C)CC3)c3ccccc3n2)c1O recorded_result="3.52 µM (active)"
structure_smiles=Cc1cc(C)c2nc(C)cc(N/N=C/c3ccc(O)cc3)c2c1 recorded_result="0.939 µM (active)"
structure_smiles=C[C@H]1CN([C@@H](C)CO)C(=O)CCCn2nncc2CO[C@@H]1CN(C)C(=O)Nc1ccc(N2CCN(C)CC2)cc1 recorded_result="28.2 µM (active)"
structure_smiles=CC(=O)OCCc1c2ccccc2c(CCCN(C)C)c2ccccc12 recorded_result="11.2 µM (active)"

Hey, just so you know, these numbers are from ChEMBL document CHEMBL1201862.
